# system: human PRMT5/MEP50 (Homo sapiens (Human))
# Sequence (O14744 whole entry): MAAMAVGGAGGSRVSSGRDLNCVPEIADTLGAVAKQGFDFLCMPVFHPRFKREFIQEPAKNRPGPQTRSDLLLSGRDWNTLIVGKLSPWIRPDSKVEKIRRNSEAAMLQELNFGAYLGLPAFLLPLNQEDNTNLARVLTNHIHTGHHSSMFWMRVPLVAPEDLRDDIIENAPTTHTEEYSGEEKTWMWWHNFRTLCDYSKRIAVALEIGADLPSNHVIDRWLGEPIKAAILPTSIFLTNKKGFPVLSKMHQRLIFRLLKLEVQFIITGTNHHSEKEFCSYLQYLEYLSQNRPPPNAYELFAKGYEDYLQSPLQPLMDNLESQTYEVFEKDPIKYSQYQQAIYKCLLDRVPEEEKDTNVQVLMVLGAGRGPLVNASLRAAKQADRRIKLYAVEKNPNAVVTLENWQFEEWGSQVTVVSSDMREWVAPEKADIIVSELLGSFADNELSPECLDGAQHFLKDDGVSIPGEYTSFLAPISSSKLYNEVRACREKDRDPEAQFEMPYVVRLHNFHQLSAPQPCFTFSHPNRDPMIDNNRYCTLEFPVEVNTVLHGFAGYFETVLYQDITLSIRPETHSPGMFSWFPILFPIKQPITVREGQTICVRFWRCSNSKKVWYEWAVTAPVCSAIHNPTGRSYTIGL
# Sequence (Q9BQA1 whole entry partner): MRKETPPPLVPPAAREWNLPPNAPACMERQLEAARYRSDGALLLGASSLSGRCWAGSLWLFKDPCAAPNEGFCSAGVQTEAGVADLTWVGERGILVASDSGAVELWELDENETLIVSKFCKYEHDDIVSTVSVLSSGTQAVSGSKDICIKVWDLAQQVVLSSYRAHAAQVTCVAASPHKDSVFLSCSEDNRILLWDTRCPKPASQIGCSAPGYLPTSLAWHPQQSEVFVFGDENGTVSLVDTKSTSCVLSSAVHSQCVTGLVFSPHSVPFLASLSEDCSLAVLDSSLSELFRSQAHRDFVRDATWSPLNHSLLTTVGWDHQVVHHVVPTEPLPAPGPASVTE
# methodSummary: PRMT5 chemiluminescent assay
# reportedConditions: human PRMT5/MEP50 expressed in HEK293 cells; biotinylated histone peptides; Histone H4 monomethyl R3 antibody; chemiluminescent readout
Here the recorded IC50 is given for each entry.

Worked examples, 6 compounds total:
| compound | system | IC50 |
| --- | --- | --- |
| O=C(OC[C@@H](O)CN1CCc2ccccc2C1)N1CCC(C(=O)N2C3CCC2COC3)CC1 [Example 4X] | human PRMT5/MEP50 (Homo sapiens (Human)) | 0.809 µM |
| O=C(OC[C@H](O)CN1CCc2ccccc2C1)N1CCC(c2ccccn2)C1 (stereo partly shown) [Example 4R] | human PRMT5/MEP50 (Homo sapiens (Human)) | 0.081 µM |
| O=C(NC[C@H](O)CN1CCc2ccccc2C1)N1CCC(N2CCSCC2)C1 (stereo partly shown) [Example 1CE] | human PRMT5/MEP50 (Homo sapiens (Human)) | 3.1 µM |
| CS(=O)(=O)N1CCCN(C(=O)NC[C@H](O)CN2CCc3ccccc3C2)CC1 [Example 1AQ] | human PRMT5/MEP50 (Homo sapiens (Human)) | 0.077 µM |
| O=C(OCC(O)CN1CCc2sccc2C1)N1CCCc2ccccc21 (stereo not shown) [Example 4Y] | human PRMT5/MEP50 (Homo sapiens (Human)) | 1.46 µM |
| O=C(NCC(O)CN1CCc2sccc2C1)N1CCc2ccccc2C1 (stereo not shown) [Example 1AA] | human PRMT5/MEP50 (Homo sapiens (Human)) | 0.342 µM |

Okay, now this compound:
input: // fetch IC50 for O=C(NC[C@H](O)CN1CCc2ccccc2C1)N1CCC[C@@H](c2ccccc2)C1 (single isomer, unassigned) [Example 5A] ; system: human PRMT5/MEP50 (Homo sapiens (Human))
output: 0.026 µM
